Test system: HepG2 human hepatocarcinoma cells
assay-comment: Rotenone ATP Assay (Complex I by-pass assay)
Format: cell-based
measurement-parameters: Homo sapiens, 1 h; HepG2, 50 micromolar rotenone, 60 minutes, ATP bioluminescence
Entries and their pEC50
Convention used: pEC50 is expressed as -log10 of the molar concentration.

COC1=C(OC)C(=O)C(CCCCCCCCCC(F)(F)F)=C(C)C1=O ... 5.84

From here, focus on the item given below.
In: Quick one: pEC50 of "COC1=C(OC)C(=O)C(C/C=C(\C)CC/C=C(\C)CCC=C(F)F)=C(C)C1=O" ?
Out: 5.99

---

Test system: frataxin deficient fibroblasts (GM03665) from Friedreich's ataxia patient
assay-comment: Frataxin Deficient Fibroblast Viability Assay (BSO Assay)
Assay type: cell-based
measurement-parameters: Homo sapiens, Fibroblast; FA patient fibroblasts pretreated with compound, BSO 10 mM, MTT after 48 hrs
Text: Example 12: Frataxin Deficient Fibroblast Viability Assay (the “BSO Assay”) […] Absorption readouts were processed as follows: ValueΔ=ValueOD570−ValueOD650 and the obtained values were used to calculate cell viability as % of control cell (i.e., no BSO, no compound, just vehicle) viability. […]
hey, just use met if measured EC50 is less than 200 nM, otherwise not met

Field: example entries. Status: answers known.
COC1=C(OC)C(=O)C(CCCCCCCCCC(F)(F)F)=C(C)C1=O ... met
CC1=C(C)C(=O)C(C/C=C(\C)CC/C=C(\C)CCC=C(F)F)=C(C)C1=O ... met
COC1=C(OC)C(=O)C(CCCCCC(F)F)=C(C)C1=O ... not met
CCCCCCCC1=C(C)C(=O)C(OC)=C(OC)C1=O ... not met
CCCCCCCCCCC1=C(C)C(=O)C(OC)=C(OC)C1=O [Compound D, reference compound] ... met
COC1=C(OC)C(=O)C(CCCC(F)(F)F)=C(C)C1=O ... not met

Below: the item to evaluate.
In: Is EC50 of CC1(C)CC[C@]2(NC(=O)C(C)(F)F)CC[C@]3(C)[C@H](C(=O)C=C4[C@@]5(C)C=C(C#N)C(=O)C(C)(C)[C@@H]5CC[C@]43C)[C@@H]2C1 [Omaveloxolone, reference compound] strictly below 200 nM?
Out: met

---

Test system: frataxin deficient fibroblasts (GM03665) from Friedreich's ataxia patient
assay-comment: Frataxin Deficient Fibroblast Viability Assay (BSO Assay)
Assay type: cell-based
measurement-parameters: Homo sapiens, Fibroblast; FA patient fibroblasts pretreated with compound, BSO 10 mM, MTT after 48 hrs
Entries and their EC50
Write the answer as a number in nM, unit excluded.

COC1=C(OC)C(=O)C(CCCCCCF)=C(C)C1=O ... 555

In: Quick one: EC50 of "COC1=C(OC)C(=O)C(CCCCCC(F)(F)F)=C(C)C1=O" ?
Out: 359

---

Tested on: GM03665 cells (fibroblasts from a subject with Friedreich's ataxia)
assay-comment: RSL-3 Toxicity Assay (RSL-3 Assay)
Format: cell-based, human
measurement-parameters: Homo sapiens, Fibroblast; GM03665 cells, RSL-3 2 μM, 24 hours, MTT
Experimental: Example 14: RSL-3 Toxicity Assay (RSL-3 Assay) This assay has been adapted from: Hinman, A., Holst, C. […] In brief, GM03665 cells (Coriell Institute) were seeded in 96-well plates (Sarstedt) in DMEM cell culture media containing 10% Fetal Bovine serum and 1% Penicillin-Streptomycin (Pen-Strep) antibiotic mix at the amount of 2×10^4/mL (100 μL or 2×10^3 cells per well). […] After 24 hours of incubation cell viability was assessed by MTT test. […]
pEC50: −log10 of the molar value.
Label Criterion met for high-side pEC50 (at or above 7) and Criterion not met for low-side pEC50 (below it).

Field: example entries. Status: answers known.
COC1=C(OC)C(=O)C(CCCCCCF)=C(C)C1=O [Compound G] ... Criterion not met
COC1=C(OC)C(=O)C(CCCC(F)(F)F)=C(C)C1=O [Compound I] ... Criterion not met
COC1=C(OC)C(=O)C(CCCCF)=C(C)C1=O [Compound J] ... Criterion not met
CC(C)=CCC/C(C)=C/CC/C(C)=C/CC[C@@](C)(O)CCC1=C(C)C(=O)C(C)=C(C)C1=O [Vatiquinone, reference compound] ... Criterion met

Below: the item to evaluate.
In: Reported pEC50 at or above 7? CCCCCCCC1=C(C)C(=O)C(OC)=C(OC)C1=O [Compound H]
Out: Criterion met
